biological target: human CYP11B2 (Homo sapiens, UniProt P19099); construct: expressed in transfected cells; assay: Inhibition of hCYP11B2 in transfected V79 cells; format: cell-based; conditions: hamster V79 cells expressing human CYP11B2; substrate 11-deoxycorticosterone 200 nM
Sequence (P19099 25-503): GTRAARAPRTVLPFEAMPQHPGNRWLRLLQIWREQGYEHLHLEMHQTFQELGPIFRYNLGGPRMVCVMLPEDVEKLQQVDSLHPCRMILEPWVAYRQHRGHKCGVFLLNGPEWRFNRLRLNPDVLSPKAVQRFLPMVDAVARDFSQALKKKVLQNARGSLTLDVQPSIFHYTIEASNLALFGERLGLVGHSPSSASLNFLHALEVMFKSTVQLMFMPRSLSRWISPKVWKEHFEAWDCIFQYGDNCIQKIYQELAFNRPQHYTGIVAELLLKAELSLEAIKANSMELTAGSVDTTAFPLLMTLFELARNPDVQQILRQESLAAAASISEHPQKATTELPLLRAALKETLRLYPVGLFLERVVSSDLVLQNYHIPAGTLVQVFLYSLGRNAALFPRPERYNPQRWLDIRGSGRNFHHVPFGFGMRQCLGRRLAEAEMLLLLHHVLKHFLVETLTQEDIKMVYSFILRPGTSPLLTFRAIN
measurement.label: log10(IC50) (log10 of the value in nM)
Scale type: logarithmic (base 10). Underlying IC50 unit: nM.

Give log10(IC50) for each of the items listed below.
1. N#Cc1ccc(-c2cncc3c2OCCN3C(=O)Cc2cccc(Cl)c2)cc1
2. N#Cc1ccc(-c2cncc3c2CCN3C(=O)CCl)cc1
3. N#Cc1ccc(-c2cncc3c2OCCN3S(=O)(=O)c2cccc3ccccc23)cc1
4. N#Cc1ccc(-c2cncc3c2ccn3S(=O)(=O)c2ccc(Cl)nc2)cc1
5. N#Cc1ccc(-c2cncc3c2CCN3C(=O)c2cccc(C#N)c2)cc1
6. N#Cc1ccc(-c2cncc3c2SCCN3S(=O)(=O)c2ccc3ccccc3c2)cc1

Solution:
[0.41, 2.00, -0.41, 0.08, 1.78, -0.70]

Give log10(IC50) for each of the items listed below.
1. O=C(C1CN(Cc2cccc(F)c2)C1)N1CCOc2c(-c3cc4cc(Cl)ccc4o3)cncc21
2. N#Cc1ccc(-c2cncc3c2CCN3C(=O)Cc2ccc(C(F)(F)F)cc2)cc1
3. COc1cccc(C2=NOC(S(=O)(=O)N3CCOc4c(-c5ccc(C#N)cc5)cncc43)C2)c1 (centres unmarked)
4. N#Cc1ccc(-c2cncc3c2CCN3C(=O)c2ccccc2C(F)(F)F)cc1
5. O=S(=O)(C1CC2(COC2)C1)N1CCSc2c(-c3cc4cc(Cl)ccc4o3)cncc21

Solution:
[1.61, 1.54, -0.52, 1.26, 0.58]

Give log10(IC50) for each of the items listed below.
1. N#Cc1ccc(-c2cncc3c2CCN3C(=O)c2cccs2)cc1
2. N#Cc1ccc(-c2cncc3c2SCCN3C(=O)c2ccc(F)cc2)cc1
3. COc1ccc(S(=O)(=O)N2CCSc3c(-c4cccc(C#N)c4)cncc32)cc1
4. N#Cc1ccc(-c2cncc3c2CCN3S(=O)(=O)c2ccc(C(F)(F)F)cc2)cc1
5. N#Cc1ccc(-c2cncc3c2OCCN3S(=O)(=O)C2CN(C(=O)c3cccc(C#N)c3)C2)cc1
6. N#Cc1ccc(-c2cncc3c2CCN3S(=O)(=O)c2ccc(F)cc2)cc1

Solution:
1: 0.73; 2: 1.32; 3: -0.15; 4: -0.19; 5: 1.29; 6: -0.82

Give log10(IC50) for each of the items listed below.
1. N#Cc1ccc(-c2cncc3c2SCCN3Cc2cccc([N+](=O)[O-])c2)cc1
2. COc1ccc(C(=O)N2CCSc3c(-c4cc5cc(C#N)ccc5o4)cncc32)cc1
3. N#Cc1ccc(-c2cncc3c2ccn3S(=O)(=O)c2ccccc2)cc1
4. COc1ccc(C(=O)N2CC(C(=O)N3CCOc4c(-c5ccc(C#N)cc5)cncc43)C2)cc1
5. N#Cc1ccc(-c2cncc3c2SCCN3S(=O)(=O)c2cccc(C#N)c2)cc1

Solution:
1: 2.39; 2: 1.04; 3: -0.40; 4: 0.30; 5: -1.00

Give log10(IC50) for each of the items listed below.
1. COc1cccc(C(=O)n2ccc3c(-c4ccc(C#N)cc4)cncc32)c1
2. N#Cc1ccc(-c2cncc3c2CCN3S(=O)(=O)c2cccc(F)c2)cc1
3. N#Cc1ccc(-c2cncc3c2OCCN3S(=O)(=O)C2CC(Cc3ccccc3)=NO2)cc1 (centres unmarked)
4. COc1cccc(C(=O)N2CC(C(=O)N3CCOc4c(-c5ccc(C#N)cc5)cncc43)C2)c1

Solution:
[0.28, -0.52, -0.30, 0.20]

Give log10(IC50) for each of the items listed below.
1. N#Cc1ccc(-c2cncc3c2SCCN3C(=O)c2ccc(Cl)cc2)cc1
2. N#Cc1ccc(-c2cncc3c2SCCN3S(=O)(=O)c2ccc(C(F)(F)F)cc2)cc1

Solution:
1: 1.11; 2: -0.40

Give log10(IC50) for each of the items listed below.
1. O=C(c1ccccc1F)N1CCc2c(-c3ccc4nccn4c3)cncc21
2. N#Cc1ccc(-c2cncc3c2CCN3C(=O)c2ccc(F)cc2)cc1

Solution:
1.43
1.48

Give log10(IC50) for each of the items listed below.
1. N#Cc1ccc(-c2cncc3c2CCN3S(=O)(=O)c2cccc(C#N)c2)cc1
2. Cc1cccc(S(=O)(=O)N2CCc3c(-c4ccc(C#N)cc4)cncc32)c1
3. N#Cc1ccc(-c2cncc3c2OCCN3S(=O)(=O)c2ccc([N+](=O)[O-])cc2)cc1
4. Cn1ncc2ccc(-c3cncc4c3ccn4C(=O)c3ccc(F)cc3)cc21
5. COc1ccc(S(=O)(=O)N2CCSc3c(-c4ccc(F)c(C)c4)cncc32)cc1

Solution:
1. 0.18
2. 0.15
3. -0.96
4. 1.23
5. -1.05
